Assay: Plasma pharmacokinetic assay, single oral administration
Format: in vivo, male Sprague Dawley rats
Condition label: male, Sprague-Dawley, po; rat, P.O., 5 mg/kg, plasma
Quantity measured: AUC(0-inf) (ng·h/mL)

1) Cc1cccc(-c2nn(CC(=O)NCc3ccccc3)cc2-c2ccnc3ccccc23)n1; 27.7

(P) Cc1cccc(-c2nn(CC(=O)NCc3ccccc3C)cc2-c2ccnc3ccccc23)n1
(Q) Cc1cccc(-c2nn(CC(=O)NCc3ccccc3Cl)cc2-c2ccnc3ccccc23)n1
Problem: Given the entries P and Q , determine which has the lower reported AUC(0-inf). In your reply, give the label of the chosen option. Q
(Q: 15.3 ng·h/mL, P: 39.4 ng·h/mL)
